Activity values, listed per item
System: Cryptosporidium parvum
assay: Binding affinity to Cryptosporidium parvum recombinant H6-NBD1 of ABC3 transporter expressed in Escherichia coli BL21(DE3) assessed as intrinsic fluorescence quenching at 100 uM relative to control
Entry rule: numbers only, all in %.

// worked examples, Activity included
[[record]]
compound = "CC(C)(C)OC(=O)NCCCn1ccc(=O)c2c1ncn2Cc1ccccc1"
subject_of_test = "Cryptosporidium parvum"
obs_value = 96.1

[[record]]
compound = "CC(C)(C)OC(=O)NCCCCCCn1ccc(=O)c2c1ncn2Cc1ccccc1"
subject_of_test = "Cryptosporidium parvum"
obs_value = 60.8

[[record]]
compound = "O=C1C=CC(=O)c2c1cnn2Cc1ccccc1"
subject_of_test = "Cryptosporidium parvum"
obs_value = 22.9

[[record]]
compound = "Nc1ncnc2c1ncn2[C@@H]1O[C@H](COP(=O)(O)OP(=O)(O)OP(=O)(O)O)[C@H]2OC3(O[C@H]21)C([N+](=O)[O-])=CC(=[N+]([O-])[O-])C=C3[N+](=O)[O-] (some centres undefined) [TNP-ATP]"
subject_of_test = "Cryptosporidium parvum"
obs_value = 33.1

[[record]]
compound = "CC(=O)[C@H]1CC[C@H]2[C@@H]3CCC4=CC(=O)CC[C@]4(C)[C@H]3CC[C@]12C"
subject_of_test = "Cryptosporidium parvum"
obs_value = 71.7


(Q) Give reported Activity for `Cc1nc(Cn2ncc3c2C(=O)C=CC3=O)cs1` (Cryptosporidium parvum)
(A) 21.6

(Q) Give the observed Activity of `CCOC(=O)Cn1ccc(=O)c2c1ncn2Cc1ccccc1` for Cryptosporidium parvum.
(A) 85.5

(Q) Name the recorded Activity of `CCOC(=O)CCCn1ccc(=O)c2c1ncn2Cc1ccccc1` , assay system Cryptosporidium parvum.
(A) 80.1

(Q) Give the observed Activity of CCOC(=O)C(C)n1ccc(=O)c2c1ncn2Cc1ccccc1 (racemic) for Cryptosporidium parvum.
(A) 69.3

Recorded values, source ChEMBL document CHEMBL1165882.
